The measured values listed here are drawn from paper PMC8079988.

Target: TMEM16A (Mus musculus, UniProt Q8BHY3)
Sequence (Q8BHY3 whole entry): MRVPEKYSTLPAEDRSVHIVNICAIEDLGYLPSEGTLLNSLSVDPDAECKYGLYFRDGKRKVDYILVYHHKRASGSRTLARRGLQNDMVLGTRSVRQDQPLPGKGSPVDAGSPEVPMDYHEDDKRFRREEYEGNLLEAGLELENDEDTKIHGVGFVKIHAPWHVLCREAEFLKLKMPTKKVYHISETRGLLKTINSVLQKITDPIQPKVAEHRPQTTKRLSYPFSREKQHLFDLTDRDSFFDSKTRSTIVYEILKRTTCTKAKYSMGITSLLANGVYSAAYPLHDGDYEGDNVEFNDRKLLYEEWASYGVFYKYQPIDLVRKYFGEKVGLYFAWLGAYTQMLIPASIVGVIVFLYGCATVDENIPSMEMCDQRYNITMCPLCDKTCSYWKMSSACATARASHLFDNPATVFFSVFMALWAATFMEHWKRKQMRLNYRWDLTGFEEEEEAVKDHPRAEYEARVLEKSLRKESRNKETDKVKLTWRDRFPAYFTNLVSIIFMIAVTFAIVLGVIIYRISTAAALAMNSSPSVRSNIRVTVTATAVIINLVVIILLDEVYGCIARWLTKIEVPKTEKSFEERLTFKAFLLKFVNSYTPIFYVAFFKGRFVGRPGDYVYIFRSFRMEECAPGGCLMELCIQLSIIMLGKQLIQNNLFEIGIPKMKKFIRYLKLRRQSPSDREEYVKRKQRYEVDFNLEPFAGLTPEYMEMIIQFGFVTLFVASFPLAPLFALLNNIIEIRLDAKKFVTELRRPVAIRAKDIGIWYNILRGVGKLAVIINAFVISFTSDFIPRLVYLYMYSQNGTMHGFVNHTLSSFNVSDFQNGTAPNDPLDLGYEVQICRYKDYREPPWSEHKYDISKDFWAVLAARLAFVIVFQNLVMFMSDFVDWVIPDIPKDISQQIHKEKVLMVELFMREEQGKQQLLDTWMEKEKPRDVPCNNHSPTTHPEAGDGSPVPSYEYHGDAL
Experiment: whole-cell patch clamp in LA795 cells; YFP quenching; site-directed mutagenesis
pIC50: −log10 of the molar value.
endpoint.name: pIC50

{"compound": "COc1cc(C2Oc3cc([C@H]4Oc5cc(O)cc(O)c5C(=O)[C@@H]4O)ccc3OC2CO)ccc1O (stereo partly shown)", "endpoint.name": "pIC50", "result": 4.51}
